Subject Of Test: Neuropeptide S receptor (Mus musculus)
Sequence (Q8BZP8 whole entry): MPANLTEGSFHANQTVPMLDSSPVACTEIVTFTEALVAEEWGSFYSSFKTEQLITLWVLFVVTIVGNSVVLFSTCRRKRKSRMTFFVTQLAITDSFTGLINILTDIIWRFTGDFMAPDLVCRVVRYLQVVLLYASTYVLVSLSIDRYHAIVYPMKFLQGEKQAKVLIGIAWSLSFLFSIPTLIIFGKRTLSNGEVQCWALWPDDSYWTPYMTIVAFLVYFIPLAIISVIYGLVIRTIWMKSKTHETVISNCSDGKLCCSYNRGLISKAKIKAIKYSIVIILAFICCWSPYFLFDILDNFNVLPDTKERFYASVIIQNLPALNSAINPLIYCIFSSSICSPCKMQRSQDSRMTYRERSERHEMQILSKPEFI
Assay Details: Agonist activity at mouse NPSR expressed in HEK293 cells by calcium mobilization assay
Assay type: functional, cell-based
Reported Metric: EC50 (nM)
Hi! Could you send only the number? It should be in nM, unit omitted.

IN: Answer with reported EC50 of H-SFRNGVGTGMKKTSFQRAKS-OH [NEUROPEPTIDE S]
OUT: 4.79
